Measured values drawn from PubChem BioAssay (NCI) for this set.

Tested on: HL-60(TB) leukemia
Assay: NCI-60 one-dose screen, 48 h
Settings: 10 µM unless noted
This is part of a sample that, as a whole, favours compounds with a hit. Of some 83,000 tested, about 20% had one in any assay. The source made the active and inactive calls. The calls were made as follows: active = growth percent below 10; inactive = the rest.
Classes to choose from: active, inactive

Q: How was `Cc1ccc(-c2nc3c(c(-c4ccccc4)nn3-c3ccccc3)c(-c3ccc(O)cc3)c2C#N)cc1` classified in this test?
A: inactive

Q: Record lookup: outcome of this test for `COc1cc2nc(Nc3ccc(F)cc3)nc(N)c2cc1OC` ?
A: inactive

Q: Which outcome did this test record for the compound `COc1ccc(/C(C#N)=C/c2ccccc2OC)cc1` ?
A: active

Q: Please state the recorded outcome for this compound: Nc1ccc(-c2cccs2)cc1NC(=O)c1ccc(CCCC(=O)Nc2ccc(C3CC3N)cc2)cc1 (stereo not given)
A: inactive

Q: Could you kindly confirm the outcome this assay logged for `C(CCCSC1=NCCN1)CCSC1=NCCN1` ?
A: inactive

Q: Called result for `COc1cc([C@@H]2c3cc4c(cc3[C@H](SC(=N)N)[C@H]3COC(=O)[C@H]23)OCO4)cc(OC)c1OC`
A: active

Q: Tell me the assay call for `Cc1cc2c(cc1C)[n+](Cc1ccc3ccccc3n1)cn2Cc1ccc2ccccc2n1` please.
A: active

Q: How was `Cn1cc(C(=O)c2nc(-c3c[nH]c4ccc(Br)cc34)no2)c2cc(F)ccc21` classified in this test?
A: inactive

Q: Short answer needed: outcome of this test for `Oc1ccc(Cl)cc1-c1cc(-c2ccc(F)cc2)n[nH]1` ?
A: inactive

Q: Identify the outcome logged in this assay for the compound shown: `NCCCNc1nc2ccccc2c2c(=O)c3cc(F)cc(F)c3sc12`
A: inactive

Q: Assay result, entry Clc1ccc(C2CC(c3cccc(Nc4ccncc4)c3)=NN2c2ccccc2)cc1 (stereo not given) — outcome?
A: active

Q: # outcome recorded in this test, key = `CC(=O)/C(Br)=C/c1ccc(Br)o1`
A: active

Q: Dear all, I need the recorded test outcome for `COc1ccc(C=Nc2c(C(=O)Nc3cccc(Cl)c3C)sc3nc(C)c(C(=O)/C=C/c4ccc(OC)cc4)cc23)cc1` , thank you.
A: active

Q: Just curious, what result did `C[C@H]1[C@H](C)CC[C@]2(C(=O)O)CC[C@]3(C)C(=CC[C@@H]4[C@@]5(C)C[C@@H](Cc6cn([C@@H]7O[C@H](CO)[C@@H](O)[C@H](O)[C@H]7O)nn6)[C@H](O)C(C)(C)[C@@H]5CC[C@]43C)[C@H]12` get here?
A: inactive

Q: Just curious, what result did `CO[C@H]1CC(c2ccc[nH]2)=N[C@]12O[C@@H](C)C[C@@H]1CCCCCCCc3ccc([nH]3)[C@H]12` get here?
A: inactive

Q: Fill in: this test's call for `N#Cc1c(-c2ccccc2)cc(-c2ccc(Nc3nc(Nc4ccc(F)cc4)nc(Nc4ccc(F)cc4)n3)cc2)nc1N` is ___
A: inactive

Q: Hi team, can someone confirm the assay call for `COc1ccc(OC)c(/C=C/c2nc(SC)n(-c3ccc(Cl)cc3)n2)c1` ?
A: inactive

Q: Which outcome did this test record for the compound `Nc1c(C(=O)Nc2c(Cl)cccc2Cl)sc2nc3c(cc12)C(=O)CCC3` ?
A: inactive

Q: Write down the call the test reported for this compound. Item: `COc1ccc(S(=O)(=O)c2ccc(C(N)=O)cc2)cc1NC(=O)c1[nH]c(C)c2c1CCCCC2=O`
A: active

Q: Please let me know the test result on file for CCOC(=O)CC(c1ccccc1)C(C#N)c1ccccc1 (stereo not given) .
A: inactive

Q: What classification did O=C(/C=C/c1cccnc1)NCCCCC1CCCN(C(=O)c2ccccc2)C1 (stereo not given) end up with in this test?
A: inactive

Q: Call for entry `Clc1ccc(-c2cn3ccsc3n2)c(Cl)c1Cl` :
A: inactive

Q: I'd appreciate the recorded outcome for `CCOC(=O)c1[nH]cc2c1CCc1sc(Nc3ccccn3)nc1-2` from this test.
A: inactive

Q: Called result for `CC(=O)OCCCCCCn1c2ccccc2c2c3c(c4c5ccccc5n(C)c4c21)C(=O)N(O)C3=O`
A: inactive

Q: Field: outcome | Entry: `CC(C)COc1nc2c(c(=O)n(C)c(=O)n2C)n1C`
A: inactive

Q: Fill in: this test's call for `COc1ncnc2c1ncn2C/C(Br)=C(\Br)CCl` is ___
A: inactive

Q: Which outcome was entered for the compound C=C1CCC2C3(C)COC(c4ccccc4Br)OC3CCC2(C)C1C/C=C1/C(=O)OCC1OC(C)=O (stereo not given) in this test?
A: active

Q: Answer briefly: the call reported for `Cc1ccc2c(-n3nc(C#N)c(C#N)c3N)cc(=O)[nH]c2c1` in this assay.
A: inactive

Q: Please let me know the test result on file for `O=C(/C=C\c1ccc(O)c(O)c1)c1ccccc1O` .
A: inactive

Q: Hi team, can someone confirm the assay call for `CCOc1ccc(I)cc1` ?
A: inactive

Q: Outcome logged for C=C1CCC2C3(C)COC(c4ccc(SC)cc4)OC3CCC2(C)C1C/C=C1/C(=O)OCC1O (stereo not given) in this assay:
A: active

Q: Test call for this compound, please: Cc1nc2sc(C(=O)Nc3cccc(Br)c3C)c(N)c2cc1C(O)c1ccccc1 (stereo not given)
A: active

Q: I would be grateful if you could indicate the recorded call for CCCCCCCCCCCC1=NC(C)(C)CN1CC(C)O (stereo not given) .
A: active

Q: Recorded test outcome, item `C=CCc1c(O)c(C(=O)/C=C/c2ccccc2)c(OC)c2ccoc12`
A: inactive

Q: Field: outcome | Entry: `COC(=O)c1oc2c(C(=O)/C=C/c3ccc(OC)cc3)c(OCCN3CCOCC3)ccc2c1C`
A: active

Q: Call for entry COCCOC(=O)C1=C(C)NC(=S)NC1c1ccc2c(c1)OCO2 (stereo not given) :
A: inactive

Q: Call for entry `Fc1ccc(Oc2ccc(Nc3ncnc4onc(-c5ccccc5)c34)cc2)cc1` :
A: inactive

Q: For this compound, state the assay outcome: `COc1cc2c(cc1OCCCN1CCN(CCCOc3cc4c(cc3OC)C(=O)N3CC(F)(F)C[C@H]3C=N4)CC1)N=C[C@@H]1CC(F)(F)CN1C2=O`
A: inactive

Q: Hi, do you know how `O=Nc1ccc(O)cc1` came out in this test?
A: inactive

Q: Please state the recorded outcome for this compound: N#CSCC1CC(O)(c2ccccc2)C(c2ccccc2)C(c2ccc(Cl)cc2)O1 (stereo not given)
A: active
